assayTarget: GST-ANAC055(1-171) (Arabidopsis thaliana, UniProt Q9LDY8 1-171)
Sequence: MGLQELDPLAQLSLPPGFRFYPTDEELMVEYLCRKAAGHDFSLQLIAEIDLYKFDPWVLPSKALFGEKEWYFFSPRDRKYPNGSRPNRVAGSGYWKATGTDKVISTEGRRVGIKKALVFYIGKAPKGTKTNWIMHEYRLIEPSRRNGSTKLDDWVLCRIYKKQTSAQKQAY
measurementProtocol: universal protein binding microarray (PBM); high values mean tight binding
runConditions: protein: recombinant; tags: GST; chain copies: 2; dsDNA, one strand shown
Assign 1 (yes) whenever binding signal does not fall below 0.2 E-score; assign 0 (no) whenever it does.

Consider the following illustrative entries.
[
  {
    "chain": "GTCAATCA",
    "groupLabel": "0 (no)"
  },
  {
    "chain": "ATTGACCA",
    "groupLabel": "0 (no)"
  },
  {
    "chain": "GTAACGTA",
    "groupLabel": "0 (no)"
  },
  {
    "chain": "TTACGGAA",
    "groupLabel": "1 (yes)"
  },
  {
    "chain": "CACGTTAA",
    "groupLabel": "1 (yes)"
  }
]

Quick check: does `GTACGCAA` have binding signal greater than or equal to 0.2 E-score? 1 (yes)

Quick check: does `AAGGAAGC` have binding signal greater than or equal to 0.2 E-score? 0 (no)

---

assayTarget: GST-VND3 NAC domain (Arabidopsis thaliana, UniProt Q9FH59 12-162)
Sequence: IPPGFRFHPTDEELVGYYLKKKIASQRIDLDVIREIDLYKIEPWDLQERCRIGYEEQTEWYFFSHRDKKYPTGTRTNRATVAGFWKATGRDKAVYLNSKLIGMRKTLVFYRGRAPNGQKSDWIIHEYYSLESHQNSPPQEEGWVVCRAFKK
measurementProtocol: universal protein binding microarray (PBM); high values mean tight binding
runConditions: protein: recombinant; tags: GST; chain copies: 2; dsDNA, one strand shown
Assign rule met whenever binding signal does not fall below 0.1 E-score; assign rule not met whenever it does.

Consider the following illustrative entries.
[
  {
    "chain": "TTACGGAA",
    "groupLabel": "rule met"
  },
  {
    "chain": "CAAGTTAC",
    "groupLabel": "rule met"
  },
  {
    "chain": "CAAAGTCA",
    "groupLabel": "rule not met"
  },
  {
    "chain": "GACGTGTA",
    "groupLabel": "rule met"
  },
  {
    "chain": "ACAAGTCA",
    "groupLabel": "rule not met"
  },
  {
    "chain": "TAAAGCAA",
    "groupLabel": "rule met"
  },
  {
    "chain": "ACGTCATC",
    "groupLabel": "rule met"
  },
  {
    "chain": "ACGCAAGG",
    "groupLabel": "rule met"
  }
]

Quick check: does `TAGTCAAA` have binding signal greater than or equal to 0.1 E-score? rule met

Quick check: does `TAGCGTAA` have binding signal greater than or equal to 0.1 E-score? rule met

Quick check: does `CCACACGC` have binding signal greater than or equal to 0.1 E-score? rule met

Quick check: does `AATTGCGT` have binding signal greater than or equal to 0.1 E-score? rule met

Quick check: does `AAGTCTTC` have binding signal greater than or equal to 0.1 E-score? rule met

Quick check: does `TGACTAAA` have binding signal greater than or equal to 0.1 E-score? rule not met

---

assayTarget: GST-WRKY1(266-371) (Arabidopsis thaliana, UniProt Q9SI37 266-371)
Sequence (Q9SI37 266-371): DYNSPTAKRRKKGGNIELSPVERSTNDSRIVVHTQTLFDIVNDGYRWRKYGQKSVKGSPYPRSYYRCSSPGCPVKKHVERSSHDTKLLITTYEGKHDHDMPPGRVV
measurementProtocol: universal protein binding microarray (PBM); high values mean tight binding
runConditions: protein: recombinant; tags: GST; dsDNA, one strand shown
assayReadout: binding signal (E-score)
Express the result in E-score but write the number alone.

[
  {
    "chain": "CGGTCAGC",
    "binding signal (E-score)": 0.458
  },
  {
    "chain": "CCTCTGAC",
    "binding signal (E-score)": 0.408
  }
]

Query (sequence): `ACCGTTGA` ; field requested: binding signal 0.404

Query (sequence): `AGTCAGAA` ; field requested: binding signal 0.416

Query (sequence): `TATGACCA` ; field requested: binding signal 0.424

Query (sequence): `CAAGTCAA` ; field requested: binding signal 0.486

Query (sequence): `AGGTTGAC` ; field requested: binding signal 0.474

Query (sequence): `ATAAGTAA` ; field requested: binding signal 0.142

Query (sequence): `CAACGACC` ; field requested: binding signal 0.421

Query (sequence): `CGGTCATA` ; field requested: binding signal 0.415

Query (sequence): `GACCAAGA` ; field requested: binding signal 0.403

---

assayTarget: GST-SND1(1-203) (Arabidopsis thaliana, UniProt Q9LPI7 1-203)
Sequence: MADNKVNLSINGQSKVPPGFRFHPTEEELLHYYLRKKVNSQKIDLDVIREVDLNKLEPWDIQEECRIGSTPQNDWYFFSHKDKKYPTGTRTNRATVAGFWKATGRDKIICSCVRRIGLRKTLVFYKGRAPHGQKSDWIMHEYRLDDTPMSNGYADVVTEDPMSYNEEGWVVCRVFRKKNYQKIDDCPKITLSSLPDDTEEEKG
measurementProtocol: universal protein binding microarray (PBM); high values mean tight binding
runConditions: protein: recombinant; tags: GST; chain copies: 2; dsDNA, one strand shown
assayReadout: binding signal (E-score)
Express the result in E-score but write the number alone.

Example entries and their recorded answers appear below.
[
  {
    "chain": "TAAGTCAA",
    "outputUnit": "E-score",
    "resultValue": 0.175
  },
  {
    "chain": "CCACGTAA",
    "outputUnit": "E-score",
    "resultValue": 0.0962
  },
  {
    "chain": "GCTAAGCA",
    "outputUnit": "E-score",
    "resultValue": 0.155
  },
  {
    "chain": "ACGCTACA",
    "outputUnit": "E-score",
    "resultValue": 0.402
  },
  {
    "chain": "ACGTAAAC",
    "outputUnit": "E-score",
    "resultValue": 0.404
  },
  {
    "chain": "GTCGCGTA",
    "outputUnit": "E-score",
    "resultValue": 0.422
  }
]

Query (sequence): `ATGACGTG` ; field requested: binding signal 0.326

Query (sequence): `ATTACGCA` ; field requested: binding signal 0.431

Query (sequence): `TAGGGAAA` ; field requested: binding signal 0.0953

Query (sequence): `ACGCAACG` ; field requested: binding signal 0.461

Query (sequence): `AAACACGC` ; field requested: binding signal 0.259

Query (sequence): `GTACGCGA` ; field requested: binding signal 0.288

Query (sequence): `TGCGTACA` ; field requested: binding signal 0.393

Query (sequence): `AACACGGA` ; field requested: binding signal 0.0986

Query (sequence): `ACGCTAAC` ; field requested: binding signal 0.454

Query (sequence): `CTACGTTA` ; field requested: binding signal 0.478

Query (sequence): `AGACGTGA` ; field requested: binding signal 0.25

---

binding signal reference
assayTarget: GST-ANAC092(1-285) full length (Arabidopsis thaliana, UniProt Q9FKA0 1-285)
Sequence: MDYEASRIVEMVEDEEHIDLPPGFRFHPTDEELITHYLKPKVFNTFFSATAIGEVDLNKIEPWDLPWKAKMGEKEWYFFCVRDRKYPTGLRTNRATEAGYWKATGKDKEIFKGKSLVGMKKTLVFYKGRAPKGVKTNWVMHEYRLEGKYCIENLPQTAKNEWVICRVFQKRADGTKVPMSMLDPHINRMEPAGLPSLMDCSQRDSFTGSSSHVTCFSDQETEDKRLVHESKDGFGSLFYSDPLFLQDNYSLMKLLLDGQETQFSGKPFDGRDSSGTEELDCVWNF
measurementProtocol: universal protein binding microarray (PBM); high values mean tight binding
runConditions: protein: recombinant; tags: GST; chain copies: 2; dsDNA, one strand shown

Example entries and their recorded answers appear below.
[
  {
    "chain": "ACTAGTCA",
    "binding signal": "0.0648 E-score"
  },
  {
    "chain": "CGAAGCAA",
    "binding signal": "0.271 E-score"
  },
  {
    "chain": "CAAGTAAC",
    "binding signal": "0.408 E-score"
  },
  {
    "chain": "TGCACGCA",
    "binding signal": "0.458 E-score"
  },
  {
    "chain": "ACGGCAAT",
    "binding signal": "0.366 E-score"
  }
]

Field: next sequence
Query (sequence): `ACACGTCA` ; field requested: binding signal 0.487 E-score

---

assayTarget: GST-NAP(1-166) (Arabidopsis thaliana, UniProt O49255 1-166)
Sequence: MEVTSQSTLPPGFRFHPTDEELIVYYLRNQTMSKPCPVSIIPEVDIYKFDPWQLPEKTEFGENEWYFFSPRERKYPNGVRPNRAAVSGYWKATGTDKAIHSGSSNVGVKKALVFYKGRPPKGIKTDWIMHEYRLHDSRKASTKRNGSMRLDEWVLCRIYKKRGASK
measurementProtocol: universal protein binding microarray (PBM); transcription factors of Arabidopsis thaliana; high values mean tight binding
runConditions: protein: recombinant; tags: GST; chain copies: 2; dsDNA, one strand shown
binding signal reference
Express the result in E-score but write the number alone.

Example entries and their recorded answers appear below.
[
  {
    "chain": "CACGGCAC",
    "binding signal, E-score": 0.478
  },
  {
    "chain": "ATACGTTA",
    "binding signal, E-score": 0.169
  },
  {
    "chain": "ACGTAACA",
    "binding signal, E-score": 0.417
  },
  {
    "chain": "AGACGCAA",
    "binding signal, E-score": 0.433
  },
  {
    "chain": "AGCGTGTC",
    "binding signal, E-score": 0.0924
  }
]

Query (sequence): `TGAAGAAA` ; field requested: binding signal 0.0893
